- system_tested: BTK (Homo sapiens, UniProt Q06187)
- Construct: endogenous in cells; host or cells: TMD-8 cells
- Sequence (Q06187 whole entry): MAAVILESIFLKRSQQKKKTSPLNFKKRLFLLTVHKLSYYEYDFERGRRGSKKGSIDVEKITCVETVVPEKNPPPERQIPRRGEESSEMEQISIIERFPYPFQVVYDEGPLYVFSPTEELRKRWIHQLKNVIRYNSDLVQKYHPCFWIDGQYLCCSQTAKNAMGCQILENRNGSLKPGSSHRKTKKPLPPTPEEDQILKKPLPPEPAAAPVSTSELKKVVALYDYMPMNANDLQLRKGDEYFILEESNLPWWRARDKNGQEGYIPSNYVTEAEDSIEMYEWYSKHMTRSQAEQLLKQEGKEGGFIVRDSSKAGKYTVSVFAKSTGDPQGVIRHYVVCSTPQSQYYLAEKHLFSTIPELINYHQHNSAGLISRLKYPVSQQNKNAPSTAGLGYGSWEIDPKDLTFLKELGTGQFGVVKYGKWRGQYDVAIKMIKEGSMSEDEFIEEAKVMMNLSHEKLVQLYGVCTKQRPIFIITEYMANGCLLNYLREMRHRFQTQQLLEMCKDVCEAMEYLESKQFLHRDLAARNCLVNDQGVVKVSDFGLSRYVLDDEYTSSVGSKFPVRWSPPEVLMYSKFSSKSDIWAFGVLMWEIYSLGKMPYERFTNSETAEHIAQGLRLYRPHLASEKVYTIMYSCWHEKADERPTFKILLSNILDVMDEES
- protocol_description: BTK degradation in TMD-8 cells (HTRF assay)
- Type: cell-based
- condition_set: 6 h treatment, HTRF BTK degradation IC50 (DC50)
So basically, if DC50 comes in under 10 nM it's true, and if it's 10 nM or more it's false.

1) Cc1cc(-c2cc(Nc3ccc(N4CCC5(CCN(CC6CCN(c7ccc(N8CCC(=O)NC8=O)cc7)CC6)C5)CC4)cn3)ncn2)ccc1[C@@H](C)NC(=O)c1nc(C(C)(C)C)no1; true
2) Cc1cc(-c2cc(Nc3ccc(N4CCN(CC5CCN(c6ccc(N7CCC(=O)NC7=O)cc6)CC5)CC4)cc3)ncn2)c(F)cc1[C@@H](C)NC(=O)c1nc(C(C)(C)C)no1; false
3) Cc1cc(-c2ccnc(Nc3ccc(N4CCN(CC5CCN(c6ccc(N7CCC(=O)NC7=O)cc6)CC5)CC4)cc3)n2)ccc1[C@@H](C)NC(=O)c1nc(C(C)(C)C)no1; true
4) Cc1cc(-c2cc(Nc3ccc(N4CCC5(CCN(CC6CCN(c7ccc(N8CCC(=O)NC8=O)cc7)CC6)CC5)CC4)cn3)ncn2)ccc1[C@@H](C)NC(=O)c1nc(C(C)(C)C)no1; true

The reported measurements were obtained from patent US12521440B2.
